target: ZFRlong;ILF2 (29-390) (human;human?, UniProt Q96KR1;Q12905 317-1074;29-390, |); experiment: EMSA; 4 mM Mg2+; EMSA: 20 mM HEPES pH 7.5, 150 mM K acetate, 4 mM Mg acetate, 1 mM DTT, 0.5 uM nucleic acid, 1 h on ice; 8% native PAGE in 0.5x TBE at 4 C; conditions: protein: recombinant;recombinant; tags: N-terminal His6;N-terminal His6; copies: 1;1; label: DY681 on strand 1 (5' per Methods); blunt
Sequence (Q96KR1 317-1074, chain 1 of 2): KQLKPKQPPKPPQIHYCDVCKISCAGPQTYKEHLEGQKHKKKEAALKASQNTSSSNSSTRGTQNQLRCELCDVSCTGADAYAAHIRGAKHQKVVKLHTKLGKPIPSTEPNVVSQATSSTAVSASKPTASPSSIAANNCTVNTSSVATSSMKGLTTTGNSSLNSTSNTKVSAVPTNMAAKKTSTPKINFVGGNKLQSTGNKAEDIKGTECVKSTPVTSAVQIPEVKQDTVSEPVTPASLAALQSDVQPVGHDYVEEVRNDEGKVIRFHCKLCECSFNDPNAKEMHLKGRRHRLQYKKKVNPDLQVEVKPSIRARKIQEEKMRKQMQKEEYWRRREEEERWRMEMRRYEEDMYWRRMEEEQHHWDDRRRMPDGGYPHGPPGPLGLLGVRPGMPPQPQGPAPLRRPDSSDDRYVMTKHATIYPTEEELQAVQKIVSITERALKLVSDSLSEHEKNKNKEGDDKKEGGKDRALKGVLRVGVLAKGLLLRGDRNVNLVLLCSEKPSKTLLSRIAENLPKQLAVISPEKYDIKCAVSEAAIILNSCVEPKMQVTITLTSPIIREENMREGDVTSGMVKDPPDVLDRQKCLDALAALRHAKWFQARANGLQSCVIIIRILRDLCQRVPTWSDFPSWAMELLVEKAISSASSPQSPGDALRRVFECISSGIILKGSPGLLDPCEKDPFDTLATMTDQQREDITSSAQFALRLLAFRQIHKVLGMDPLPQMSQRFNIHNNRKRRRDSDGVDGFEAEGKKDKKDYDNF
Sequence (Q12905 29-390, chain 2 of 2): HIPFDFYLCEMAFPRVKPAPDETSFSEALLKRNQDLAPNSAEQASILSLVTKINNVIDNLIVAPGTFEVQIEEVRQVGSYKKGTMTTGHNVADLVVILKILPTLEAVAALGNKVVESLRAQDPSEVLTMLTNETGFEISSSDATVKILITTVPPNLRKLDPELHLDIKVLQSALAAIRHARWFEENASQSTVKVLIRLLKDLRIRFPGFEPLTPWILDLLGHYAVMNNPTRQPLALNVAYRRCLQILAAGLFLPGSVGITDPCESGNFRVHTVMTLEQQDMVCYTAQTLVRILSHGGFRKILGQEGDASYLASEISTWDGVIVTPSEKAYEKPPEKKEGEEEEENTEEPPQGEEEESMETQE
pKd: −log10 of the molar value.
Result type: pKd

Problem: Give its pKd value. Item: C-rich (GC-rich) 12-mer dsRNA, Zfr-RBNS1 (dsRNA) RNA 1: AAUGACACCCAA RNA 2: UUGGGUGUCAUU
Result: ~6.10

Problem: Fill in: pKd of U-rich (AU-rich) 12-mer dsRNA, Zfr-RBNS3 (dsRNA) RNA 1: AAUGUUGUAAAA RNA 2: UUUUACAACAUU is ___
Result: ~6.10
